Subject of test: acetylcholinesterase from electric eel source (AChE, E.C. 3.1.1.7, Type V-S) (Electrophorus electricus)
Sequence (O42275 24-633): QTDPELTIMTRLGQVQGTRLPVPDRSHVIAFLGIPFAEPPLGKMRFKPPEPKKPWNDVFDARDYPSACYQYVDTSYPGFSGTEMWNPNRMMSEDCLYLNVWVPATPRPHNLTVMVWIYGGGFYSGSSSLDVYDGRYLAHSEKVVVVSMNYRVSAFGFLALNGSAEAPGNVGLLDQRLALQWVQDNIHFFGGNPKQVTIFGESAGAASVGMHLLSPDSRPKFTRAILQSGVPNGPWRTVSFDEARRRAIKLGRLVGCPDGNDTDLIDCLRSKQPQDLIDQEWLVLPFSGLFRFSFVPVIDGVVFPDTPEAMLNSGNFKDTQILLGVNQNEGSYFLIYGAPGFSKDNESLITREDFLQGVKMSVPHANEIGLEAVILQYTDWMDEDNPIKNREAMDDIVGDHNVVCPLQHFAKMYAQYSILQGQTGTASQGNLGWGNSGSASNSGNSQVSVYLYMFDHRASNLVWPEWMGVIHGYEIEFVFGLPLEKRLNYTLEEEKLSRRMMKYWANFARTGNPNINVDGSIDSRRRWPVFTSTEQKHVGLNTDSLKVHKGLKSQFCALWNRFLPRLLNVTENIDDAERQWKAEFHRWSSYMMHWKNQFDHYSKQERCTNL
Assay name: Ellman test, anti-acetylcholinesterase activity
The entries below come with measured pIC50 values attached.
Value format note: pIC50 is -log10 of concentration (mol/L); just state the number.

Solved entries (count: 4):
Molecule: O=C(c1ccccc1[N+](=O)[O-])N1CCN(CCN2C(=O)c3ccccc3C2=O)CC1 [Compound 4j]
Data value: 3.85
//
Molecule: O=C(c1cccc(F)c1)N1CCN(CCN2C(=O)c3ccccc3C2=O)CC1 [Compound 4e]
Data value: 8.15
//
Molecule: O=C(c1cccc(Cl)c1)N1CCN(CCN2C(=O)c3ccccc3C2=O)CC1 [Compound 4b]
Data value: 4.15
//
Molecule: COc1ccc(C(=O)N2CCN(CCN3C(=O)c4ccccc4C3=O)CC2)cc1 [Compound 4i]
Data value: 7.69

Q: Supply reported pIC50 belonging to this molecule: O=C(c1ccccc1F)N1CCN(CCN2C(=O)c3ccccc3C2=O)CC1 [Compound 4d]
Result: 5.44

Values from paper PMC5243976
